Origin of values: ChEMBL document CHEMBL1146005

Experimental System: Estrogen receptor (Homo sapiens)
Sequence (P03372 whole entry): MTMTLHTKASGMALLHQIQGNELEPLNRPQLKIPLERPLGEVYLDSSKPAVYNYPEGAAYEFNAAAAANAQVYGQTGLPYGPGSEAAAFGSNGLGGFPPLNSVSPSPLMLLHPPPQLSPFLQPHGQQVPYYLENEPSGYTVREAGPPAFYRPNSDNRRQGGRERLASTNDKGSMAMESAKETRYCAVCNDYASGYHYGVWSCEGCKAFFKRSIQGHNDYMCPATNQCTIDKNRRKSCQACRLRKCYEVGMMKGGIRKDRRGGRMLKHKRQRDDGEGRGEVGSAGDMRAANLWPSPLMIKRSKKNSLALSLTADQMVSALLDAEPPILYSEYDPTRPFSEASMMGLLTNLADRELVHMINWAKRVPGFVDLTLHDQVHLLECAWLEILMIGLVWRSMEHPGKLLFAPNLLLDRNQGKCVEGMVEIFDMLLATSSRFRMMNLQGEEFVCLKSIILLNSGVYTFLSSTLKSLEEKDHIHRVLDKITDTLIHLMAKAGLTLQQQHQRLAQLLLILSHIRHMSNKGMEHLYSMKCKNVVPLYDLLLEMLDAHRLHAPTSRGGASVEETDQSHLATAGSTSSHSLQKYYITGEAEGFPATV
pEC50: −log10 of the molar value.
Property Label: pEC50

# count of solved cases: 5
Short answer for CCC12CCC(=O)C(C(=O)OC)=C1c1ccc3[nH]ncc3c1C2 (racemic) : pEC50 was 5.93

Short answer for CC[C@@]12CCC(=O)C(C(F)(F)F)=C1c1ccc3[nH]nc(F)c3c1C2 : pEC50 was 8.08

Short answer for CC[C@@]12CCC(=O)C(C)=C1c1ccc3[nH]ncc3c1C2 : pEC50 was 6.98

Short answer for O=C1CC[C@@]2(CCC3CC3)Cc3c(ccc4[nH]ncc34)C2=C1Br : pEC50 was 7.21

Short answer for CCC12CCC(=O)C(Br)=C1c1ccc3[nH]nc(F)c3c1C2 (racemic) : pEC50 was 7.48

1. CCC12CCC(=O)C(Br)=C1c1ccc3[nH]ncc3c1C2=O (racemic)
2. CC[C@@]12CCC(=O)C(Cl)=C1c1ccc3[nH]ncc3c1C2
3. CC[C@]12CCC(=O)C(C)=C1c1ccc3[nH]ncc3c1C2
# ascending order, key=pEC50 Give the labels in the order specified.
3, 2, 1

----------
Test Method Notes: AUC in Sprague-Dawley rat at 1 mg/kg, iv
Assay type: ADME, organism-based
Parameters: dose 1 mg/kg, route intravenous
Condition: plasma
Property Label: AUC (µM·h)

# count of solved cases: 5
Short answer for CCCC[C@@]12CCC(=O)C(C(F)(F)F)=C1c1ccc3[nH]ncc3c1C2 : AUC was 0.9

Short answer for CCCC[C@@]12CCC(=O)C(C(F)(F)F)=C1c1ccc3[nH]ncc3c1C2=O : AUC was 0.7

Short answer for CC[C@@]12CCC(=O)C(Cl)=C1c1ccc3[nH]ncc3c1C2 : AUC was 0.9

Short answer for CC[C@@]12CCC(=O)C(C(F)(F)F)=C1c1ccc3[nH]ncc3c1C2 : AUC was 1.5

Short answer for CCCCC12CCC(=O)C(Br)=C1c1ccc(O)cc1C2 (racemic) : AUC was 0.5

a. CC[C@@]12CCC(=O)C(C3CC3)=C1c1ccc3[nH]ncc3c1C2
b. CC[C@]12CCC(=O)C(C)=C1c1ccc3[nH]ncc3c1C2
Thinking about recorded AUC values, which is higher, a or b ? Label of pick, please.
b

----------
Notes on EC50 obtained with UniProt Q92731.
Property Label: EC50 (nM)

Short answer for CC[C@@]12CCC(=O)C(Br)=C1c1ccc3[nH]ncc3c1C2 : EC50 was 0.7

P. CC[C@]12CCC(=O)C(C)=C1c1ccc3[nH]ncc3c1C2
Q. CCC12CCC(=O)C(Br)=C1c1ccc3[nH]ncc3c1C2=O (racemic)
R. CC[C@@]12CCC(=O)C(C(F)(F)F)=C1c1ccc3[nH]ncc3c1C2
S. CC[C@@]12CCC(=O)C(C3CC3)=C1c1ccc3[nH]ncc3c1C2
Put the entries in order of EC50, starting with the largest number. Give the labels in the order specified.
P, S, Q, R

----------
Test Method Notes: Clearance in Sprague-Dawley rat at 1 mg/kg, iv and 2 mg/kg, po
Format: ADME, organism-based
Condition: in vivo
Property Label: clearance (mL/min/kg)

# count of solved cases: 10
Short answer for CCCC[C@@]12CCC(=O)C(C(F)(F)F)=C1c1ccc3[nH]ncc3c1C2=O : clearance was 69

Short answer for CC[C@@]12CCC(=O)C(Cl)=C1c1ccc3[nH]ncc3c1C2 : clearance was 72

Short answer for O=C1CC[C@@]2(CCC3CC3)Cc3c(ccc4[nH]ncc34)C2=C1Br : clearance was 55

Short answer for CC[C@@]12CCC(=O)C(C)=C1c1ccc3[nH]ncc3c1C2 : clearance was 44

Short answer for CC[C@@]12CCC(=O)C(Br)=C1c1ccc3[nH]ncc3c1C2 : clearance was 74

Short answer for CC[C@]12CCC(=O)C(C)=C1c1ccc3[nH]ncc3c1C2 : clearance was 31

Short answer for CC[C@@]12CCC(=O)C(C(F)(F)F)=C1c1ccc3[nH]ncc3c1C2=O : clearance was 15

Short answer for CCCCC12CCC(=O)C(Br)=C1c1ccc(O)cc1C2 (racemic) : clearance was 102

Short answer for CCCC[C@@]12CCC(=O)C(C(F)(F)F)=C1c1ccc3[nH]ncc3c1C2 : clearance was 64

Short answer for CC[C@@]12CCC(=O)C(C(F)(F)F)=C1c1ccc3[nH]nc(F)c3c1C2 : clearance was 42

A. CC[C@@]12CCC(=O)C(C3CC3)=C1c1ccc3[nH]ncc3c1C2
B. CC[C@@]12CCC(=O)C(C(F)(F)F)=C1c1ccc3[nH]ncc3c1C2
Compare clearance: is it lower for A or for B ? Label of pick, please.
B
(B: 36 mL/min/kg, A: 58 mL/min/kg)

----------
Test Method Notes: Oral bioavailability in Sprague-Dawley rat at 1 mg/kg, iv and 2 mg/kg, po
Assay type: ADME, organism-based
Condition: in vivo
Property Label: bioavailability (%)

A. CC[C@@]12CCC(=O)C(Br)=C1c1ccc3[nH]ncc3c1C2
B. CCCCC12CCC(=O)C(Br)=C1c1ccc(O)cc1C2 (racemic)
Thinking about recorded bioavailability values, which is higher, A or B ? Label of pick, please.
A
(A: 64%, B: 0%)

----------
Notes on IC50 obtained with Estrogen receptor (Homo sapiens).
Property Label: IC50 (nM)

P. CCCC[C@@]12CCC(=O)C(C(F)(F)F)=C1c1ccc3[nH]ncc3c1C2
Q. CCCC[C@@]12CCC(=O)C(C(F)(F)F)=C1c1ccc3[nH]nc(F)c3c1C2
R. CC1=C2c3ccc4[nH]ncc4c3CC2(C)CCC1=O (racemic)
Thanks in advance: please rank these 3 entries by IC50, highest to lowest. Give the labels in the order specified.
R, P, Q

P. CCC12CCC(=O)C(Br)=C1c1ccc3[nH]nc(F)c3c1C2 (racemic)
Q. CCC12CCC(=O)C(C)=C1c1ccc3[nH]nc(Cl)c3c1C2 (racemic)
Compare IC50: is it lower for P or for Q ? Label of pick, please.
P

----------
Experimental System: Estrogen receptor beta (Homo sapiens, UniProt Q92731)
Sequence (Q92731 whole entry): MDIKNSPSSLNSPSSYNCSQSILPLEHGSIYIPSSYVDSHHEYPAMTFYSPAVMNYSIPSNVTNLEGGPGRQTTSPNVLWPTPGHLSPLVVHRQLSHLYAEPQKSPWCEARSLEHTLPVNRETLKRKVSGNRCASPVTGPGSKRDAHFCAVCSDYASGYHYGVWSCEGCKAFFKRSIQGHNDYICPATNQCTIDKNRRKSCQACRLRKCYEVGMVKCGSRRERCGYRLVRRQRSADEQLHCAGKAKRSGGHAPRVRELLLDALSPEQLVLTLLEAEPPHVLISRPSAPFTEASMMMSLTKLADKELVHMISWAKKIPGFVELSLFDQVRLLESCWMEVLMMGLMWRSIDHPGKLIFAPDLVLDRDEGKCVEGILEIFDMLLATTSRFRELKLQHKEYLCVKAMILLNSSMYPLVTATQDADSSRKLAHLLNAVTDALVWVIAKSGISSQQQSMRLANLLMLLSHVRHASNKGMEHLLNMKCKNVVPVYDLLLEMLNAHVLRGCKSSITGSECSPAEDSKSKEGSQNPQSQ
Property Label: IC50 (nM)

# count of solved cases: 4
Short answer for CC[C@@]12CCC(=O)C(C(F)(F)F)=C1c1ccc3[nH]ncc3c1C2=O : IC50 was 1.5

Short answer for CC[C@]12CCC(=O)C(C)=C1c1ccc3[nH]ncc3c1C2 : IC50 was 4460

Short answer for CCC12CCC(=O)C(C)=C1c1ccc3[nH]nc(Br)c3c1C2 (racemic) : IC50 was 103

Short answer for CC12CCC(=O)C(Br)=C1c1ccc3[nH]ncc3c1C2 (racemic) : IC50 was 26

I. CCC12CCC(=O)C(C)=C1c1ccc3[nH]ncc3c1C2=O (racemic)
II. CCCC[C@@]12CCC(=O)C(C(F)(F)F)=C1c1ccc3[nH]ncc3c1C2
III. CC[C@@]12CCC(=O)C(C(F)(F)F)=C1c1ccc3[nH]ncc3c1C2
Put the entries in order of IC50, starting with the largest number. Give the labels in the order specified.
I, III, II
(I: 31.8 nM, III: 2.8 nM, II: 0.8 nM)

----------
Test Method Notes: Half life in Sprague-Dawley rat at 1 mg/kg, iv and 2 mg/kg, po
Format: ADME, organism-based
Condition: in vivo
Property Label: half-life (h)

Short answer for O=C1CC[C@@]2(CCC3CC3)Cc3c(ccc4[nH]ncc34)C2=C1Br : half-life was 1.2

1. CC[C@@]12CCC(=O)C(Br)=C1c1ccc3[nH]ncc3c1C2
2. CCCCC12CCC(=O)C(Br)=C1c1ccc(O)cc1C2 (racemic)
Compare half-life: is it lower for 1 or for 2 ? Label of pick, please.
1

----------
Notes on IC50 obtained with Estrogen receptor beta (Homo sapiens, UniProt Q92731).
Property Label: IC50 (nM)

P. CC[C@@]12CCC(=O)C(Cl)=C1c1ccc3[nH]ncc3c1C2=O
Q. CCCC12CCC(=O)C(C)=C1c1ccc3[nH]ncc3c1C2 (racemic)
Compare IC50: is it lower for P or for Q ? Label of pick, please.
P
(P: 4.1 nM, Q: 12.6 nM)
